B1: library; a variant is named by its letters at N, in order (parent)
chain: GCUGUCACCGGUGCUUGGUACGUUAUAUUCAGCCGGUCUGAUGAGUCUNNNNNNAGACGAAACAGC

Variants of: B1
Assay Summary: normalized RNA/DNA level with ligand (relative to sTRSVctl = 100) (log10 (% of sTRSVctl)); HEK293T overexpressing SLC46A1; ligand concentration (+) RNA-Seq: 6 mM; higher = less ribozyme self-cleavage, higher mRNA level
Stated Conditions: with (6R,S)-folinic acid; ligand present: yes
Metric Name: normalized RNA/DNA level with ligand (log10)
Answer as a number with no unit attached.

What value of normalized RNA/DNA level with ligand (log10) has been recorded for this entry: CUCACG
2.03
